System: growth hormone secretion
Assay comment: GHRP induced growth hormone secretion, intravenous administration (Rat IV)
Type: in vivo
Condition description: Table III; iv injection, serum GH 10 min after injection
Starred links: 1 amine or outer side, 2 acyl side, 3 side chain; linkers in the order of their positions; H or OH if unused. Non-standard residues stand in square brackets, D forms with d. Residues, ends and D or L forms follow the SMILES beside them. dNMe2Nal = CN[C@H](Cc1ccc2ccccc2c1)C(=O)O; 2Nal = N[C@@H](Cc1ccc2ccccc2c1)C(=O)O; d2Nal = N[C@H](Cc1ccc2ccccc2c1)C(=O)O; β3hAib = CC(C)(CC(=O)[*:2])N[*:1]; Inp = O=C(O)C1CCNCC1; Ava = NCCCCC(=O)O
Value kind: RAT IV ED50
Remember to follow the number with its unit.

Lookup: Fill in: RAT IV ED50 of CNC(=O)[C@H](Cc1ccccc1)NC(=O)[C@@H](Cc1ccc2ccccc2c1)NC(=O)[C@@H](Cc1ccc2ccccc2c1)NC(=O)C1CCNCC1 [(inip) b b F mam] (H-[Inp][d2Nal][d2Nal]F-NHMe) is ___
Found: 2 µg

Lookup: Fill in: RAT IV ED50 of CC(C)(N)CC(=O)N[C@H](Cc1ccc2ccccc2c1)C(=O)N[C@H](Cc1ccc2ccccc2c1)C(=O)N[C@@H](Cc1ccccc1)C(=O)N[C@@H](CCCCN)C(N)=O [(nba) b b F K amide] (β3hAib-[d2Nal][d2Nal]FK-NH2) is ___
Found: 100 µg

Lookup: Fill in: RAT IV ED50 of NCCCCC(=O)N[C@H](Cc1ccc2ccccc2c1)C(=O)N[C@H](Cc1ccc2ccccc2c1)C(=O)N[C@@H](Cc1ccc2ccccc2c1)C(=O)N[C@@H](CCCCN)C(N)=O [(Ava) b b B K amide] (H-[Ava][d2Nal][d2Nal][2Nal]K-NH2) is ___
Found: 50 µg

Lookup: Fill in: RAT IV ED50 of CN[C@H](Cc1ccc2ccccc2c1)C(=O)N[C@H](Cc1ccc2ccccc2c1)C(=O)N[C@@H](Cc1ccc(O)cc1)C(=O)N[C@@H](CCCCN)C(N)=O [nmb b Y K amide] (H-[dNMe2Nal][d2Nal]YK-NH2) is ___
Found: 500 µg

###

Provide the recorded pEC50 for the entries that follow.
Experimental system: rat pituitary cells (Rattus norvegicus)
Condition description: read-out: PIT Cell EC50; Table III, formula IV compounds; GH release, 15 min incubation
Non-standard residues stand in square brackets, D forms with d. Residues, ends and D or L forms follow the SMILES beside them. dNMe2Nal = CN[C@H](Cc1ccc2ccccc2c1)C(=O)O; Inp = O=C(O)C1CCNCC1; Ava = NCCCCC(=O)O
On this scale, pEC50 is minus log10 of a concentration expressed in M (mol/L).

Lookup: Notebook entry, rat pituitary cells (Rattus norvegicus) assay: pEC50 of NCCCCC(=O)N[C@H](Cc1c[nH]c2ccccc12)C(=O)N[C@H](Cc1c[nH]c2ccccc12)C(=O)N[C@@H](Cc1ccccc1)C(=O)N[C@@H](CCCCN)C(N)=O [(Ava) w w F K amide] (H-[Ava][dW][dW]FK-NH2) = ?
Found: 7.89

Lookup: Notebook entry, rat pituitary cells (Rattus norvegicus) assay: pEC50 of CN(C(=O)C1CCNCC1)[C@H](Cc1ccc2ccccc2c1)C(=O)N(C)[C@H](Cc1ccc2ccccc2c1)C(=O)N[C@@H](Cc1ccccc1)C(=O)N[C@@H](CCCCN)C(N)=O [(inip) nmb nmb F K amide] (H-[Inp][dNMe2Nal][dNMe2Nal]FK-NH2) = ?
Found: 8.85

###

Experimental system: rat pituitary cells (Rattus norvegicus, UniProt O08725)
Sequence (O08725 whole entry): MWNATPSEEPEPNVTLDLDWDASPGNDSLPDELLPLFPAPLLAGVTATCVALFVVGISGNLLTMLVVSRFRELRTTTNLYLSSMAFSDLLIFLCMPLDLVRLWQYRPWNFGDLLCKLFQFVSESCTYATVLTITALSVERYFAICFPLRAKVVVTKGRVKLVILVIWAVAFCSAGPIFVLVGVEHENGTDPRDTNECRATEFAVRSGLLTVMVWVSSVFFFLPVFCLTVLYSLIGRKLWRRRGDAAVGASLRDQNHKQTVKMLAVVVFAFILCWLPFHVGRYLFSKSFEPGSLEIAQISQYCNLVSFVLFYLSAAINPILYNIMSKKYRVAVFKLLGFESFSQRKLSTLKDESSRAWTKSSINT
Condition description: read-out: PIT Cell EC50; Table IV, formula III compounds; GH release, 15 min incubation
Non-standard residues stand in square brackets, D forms with d. Residues, ends and D or L forms follow the SMILES beside them. dNMe2Nal = CN[C@H](Cc1ccc2ccccc2c1)C(=O)O; 2Nal = N[C@@H](Cc1ccc2ccccc2c1)C(=O)O; d2Nal = N[C@H](Cc1ccc2ccccc2c1)C(=O)O; dNle = CCCC[C@@H](N)C(=O)O; Inp = O=C(O)C1CCNCC1; βAla = NCCC(=O)O
Provide the recorded EC50 for the entries that follow.
Response body: numeric value in nM, unit text excluded.

Lookup: Fill in: EC50 of CCCC[C@@H](NC(=O)[C@@H](Cc1ccc2ccccc2c1)NC(=O)C1CCNCC1)C(=O)N[C@@H](Cc1ccccc1)C(N)=O [(inip) b nl F amide] (H-[Inp][d2Nal][dNle]F-NH2) is ___
Found: 72

Lookup: Fill in: EC50 of CN(C(=O)C1CCNCC1)[C@H](Cc1ccc2ccccc2c1)C(=O)N[C@@H](Cc1ccc2ccccc2c1)C(=O)N[C@@H](Cc1ccccc1)C(=O)O [(inip) nmb B F acid] (H-[Inp][dNMe2Nal][2Nal]F-OH) is ___
Found: 7

Lookup: Fill in: EC50 of NC(=O)CCNC(=O)[C@@H](Cc1ccc2ccccc2c1)NC(=O)[C@@H](Cc1ccc2ccccc2c1)NC(=O)C1CCNCC1 [(inip) b b bA amide] (H-[Inp][d2Nal][d2Nal][βAla]-NH2) is ___
Found: 10

###

Experimental system: rat pituitary cells (Rattus norvegicus, UniProt O08725)
Condition description: read-out: PIT Cell EC50; Table IV, formula III compounds; GH release, 15 min incubation
Non-standard residues stand in square brackets, D forms with d. Residues, ends and D or L forms follow the SMILES beside them. dPhe(4-Cl) = N[C@H](Cc1ccc(Cl)cc1)C(=O)O; d2Nal = N[C@H](Cc1ccc2ccccc2c1)C(=O)O; d(hPhe) = N[C@H](CCc1ccccc1)C(=O)O; β3hF = N[C@H](CC(=O)O)Cc1ccccc1; dNle = CCCC[C@@H](N)C(=O)O; Inp = O=C(O)C1CCNCC1
Provide the recorded pEC50 for the entries that follow.
On this scale, pEC50 is minus log10 of a concentration expressed in M (mol/L).

Lookup: Fill in: pEC50 of O=C(N[C@H](Cc1ccc2ccccc2c1)C(=O)N[C@H](Cc1ccc2ccccc2c1)C(=O)N1CCNCC1)C1CCNCC1 is ___
Found: 8.00

Lookup: Fill in: pEC50 of NC1CCN(C(=O)[C@@H](Cc2ccc3ccccc3c2)NC(=O)[C@@H](Cc2ccc3ccccc3c2)NC(=O)C2CCNCC2)CC1 is ___
Found: 7.41

Lookup: Fill in: pEC50 of NC(=O)[C@H](Cc1ccccc1)NC(=O)[C@@H](Cc1ccc2ccccc2c1)NC(=O)[C@@H](Cc1ccc(Cl)cc1)NC(=O)C1CCNCC1 [(inip) chf b F amide] (H-[Inp][dPhe(4-Cl)][d2Nal]F-NH2) is ___
Found: 8.66

Lookup: Fill in: pEC50 of CN(C(=O)[C@@H](Cc1ccc2ccccc2c1)NC(=O)C1CCNCC1)[C@H](Cc1ccc2ccccc2c1)C(=O)NCCCCN is ___
Found: 9.52

Lookup: Fill in: pEC50 of NC(=O)[C@H](Cc1ccccc1)NC(=O)[C@@H](CCc1ccccc1)NC(=O)[C@@H](Cc1ccc2ccccc2c1)NC(=O)C1CCNCC1 [(inip) b hf F amide] (H-[Inp][d2Nal][d(hPhe)]F-NH2) is ___
Found: 7.85

Lookup: Fill in: pEC50 of O=C(N[C@H](Cc1ccc2ccccc2c1)C(=O)N[C@H](Cc1ccc2ccccc2c1)C(=O)N[C@@H](Cc1ccc(O)cc1)C(=O)O)C1CCNCC1 [(inip) b b Y acid] (H-[Inp][d2Nal][d2Nal]Y-OH) is ___
Found: 8.30

Lookup: Fill in: pEC50 of NC(=O)[C@H](Cc1ccccc1)NC(=O)[C@@H](Cc1ccc2ccccc2c1)NC(=O)[C@@H](CCc1ccccc1)NC(=O)C1CCNCC1 [(inip) hf b F amide] (H-[Inp][d(hPhe)][d2Nal]F-NH2) is ___
Found: 7.57

Lookup: Fill in: pEC50 of CCCC[C@@H](NC(=O)C1CCNCC1)C(=O)N[C@H](Cc1ccc2ccccc2c1)C(=O)N[C@@H](Cc1ccccc1)C(N)=O [(inip) nl b F amide] (H-[Inp][dNle][d2Nal]F-NH2) is ___
Found: 7.00

Lookup: Fill in: pEC50 of NC(=O)C[C@H](Cc1ccccc1)NC(=O)[C@@H](Cc1ccc2ccccc2c1)NC(=O)[C@@H](Cc1ccc2ccccc2c1)NC(=O)C1CCNCC1 [(inip) b b hcF amide] (H-[Inp][d2Nal][d2Nal][β3hF]-NH2) is ___
Found: 9.70

Lookup: Fill in: pEC50 of NC(=O)[C@H](Cc1ccccc1)NC(=O)[C@@H](Cc1ccccc1)NC(=O)[C@@H](Cc1ccc2ccccc2c1)NC(=O)C1CCNCC1 [(inip) b f F amide] (H-[Inp][d2Nal][dF]F-NH2) is ___
Found: 7.10

Lookup: Fill in: pEC50 of NCCCNC(=O)[C@@H](Cc1ccc2ccccc2c1)NC(=O)[C@@H](Cc1ccc2ccccc2c1)NC(=O)C1CCNCC1 is ___
Found: 7.80
